Below, each entry is listed alongside its reported %Inh.
# Test system: DCAMKL1;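 further: KINOMEscan kinase panel screen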
# Construct: gene DCLK1
# TEST_SETTINGS: concentration: 1 μM, replicates: in singlicate; n = 1
QUANTITY_KIND: %Inh (%)

                                    molecule  quantity_kind  scale_unit  endpoint_result
 0       CNc1cc(-c2ccc3c(N)n[nH]c3c2)nc(N)n1           %Inh           %               16
 1  COc1ccc(Nc2nccc(N3CCC(NC(=O)C(C)c4ccc(Cl)cc4)CC3)n2)cc1 (centres unmarked)           %Inh           %                6
 2  Cc1ccc(NC(=O)Nc2ccc(Cl)cc2)cc1-c1ccc(C(=O)Nc2ccncc2)cc1           %Inh           %               18
 3      COc1cc2ncnc(Nc3cccc(Br)c3)c2cc1OC.Cl           %Inh           %               25
 4           Fc1ccc(-c2nc[nH]c2-c2ccncc2)cc1           %Inh           %               29
 5  COc1ccc(Nc2nccc(-c3ccc(NC(=O)c4cc5cc(F)ccc5[nH]4)cc3)n2)cc1           %Inh           %               11
 6  COc1cccc(C2=C(Nc3cc(Cl)c(O)c(Cl)c3)C(=O)NC2=O)c1           %Inh           %               11
 7  Cc1ccc(NC(=O)c2ccc(Cl)cc2)cc1-c1ccc(C(=O)Nc2ccncc2)cc1           %Inh           %                3
 8  Cc1c(Cn2c(C)c(C)n3c(=O)cc(N4CCOCC4)nc23)cccc1C(F)(F)F           %Inh           %                0
 9  COC(=O)C(NC(=O)NC1CCN(c2ccnc(Nc3ccc(F)cc3)n2)C1)c1ccccc1 (centres unmarked)           %Inh           %               17
10  Cc1ccc(NC(=O)Nc2ccc(Cl)c(C(F)(F)F)c2)cc1-c1ccc(C(=O)Nc2ccncc2)cc1           %Inh           %                0
11  O=C(Nc1n[nH]c2nc(-c3cccs3)c(Br)cc12)C1CC1           %Inh           %                0
12     O=c1cc(N2CCOCC2)nc2n(Cc3ccccc3F)ccn12           %Inh           %               57
13           Nc1cccc(-c2ccc3c(N)n[nH]c3c2)n1           %Inh           %                0
14  COc1ccc(CSc2nnc(-c3ccc4nccn4c3)o2)cc1C(F)(F)F           %Inh           %                8
15               c1ccc(-c2ccnc3[nH]ccc23)cc1           %Inh           %               16
16  COc1ccc2cc(-c3nc(-c4ccccc4C(C)C)[nH]c3-c3ccncc3)ccc2c1           %Inh           %                1
17  FC(F)(F)c1ccccc1-c1cc(-c2c[nH]nc2-c2ccccn2)ccn1           %Inh           %                6
18  CC[C@@H]1CO[C@H](C(=O)Nc2ccccc2)CN1c1cc(-c2ccc3c(N)n[nH]c3c2)nc(NC)n1           %Inh           %                2
19  COC(=O)c1cccc(NC(=O)NC2CCN(c3ccnc(Nc4ccc(OC)cc4)n3)C2)c1 (centres unmarked)           %Inh           %                8
20  CS(=O)(=O)CCNCc1nc(-c2ccc3ncnc(Nc4ccc(OCc5ccccc5)c(Cl)c4)c3c2)cs1.Cl           %Inh           %               13
21  COc1ccc(Nc2nccc(N3CCC(NC(=O)C(C)c4ccc(Cl)cc4)C3)n2)cc1 (centres unmarked)           %Inh           %                0
22     Fc1ccc(-c2nn3cccc(F)c3c2-c2ccncc2)cc1           %Inh           %                0
23  Cc1nccc(-c2c(-c3ccc(F)cc3)ncn2CCCN2CCOCC2)n1.Cl           %Inh           %                0
24  O=C1NC(=O)C(c2ccc(Cl)cc2)=C1Nc1ccc(O)cc1           %Inh           %                0
25  COC(=O)C(Cc1ccccc1)NC(=O)NC1CCN(c2ccnc(Nc3ccc(F)cc3)n2)C1 (centres unmarked)           %Inh           %                7
26  CNc1nc(-c2ccc3c(N)n[nH]c3c2)cc(N2C[C@@H](C(=O)Nc3ccccc3)CC[C@H]2C)n1           %Inh           %               53
27   COc1ccc(CSc2nnc(-c3ccc4c(c3)CCO4)o2)cc1           %Inh           %                0
28  COc1ccc(CSc2nnc(-c3ccc4ncsc4c3)o2)cc1C(F)(F)F           %Inh           %                9
